protocol.text: yeast AGP1-GFP level changes, GLN3 branch – cell-based, multiplex flow cytometry, S. cerevisiae, primary screen (AID 1887);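 further: AGP1-GFP fusion strain of S. cerevisiae within a five-strain barcoded multiplex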
settings: 3 h, at 10 µM, active compounds read high
Records with an inconclusive call do not appear. Active and inactive are the calls of the source.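 How the source made its calls: active means GFP signal above the screen-wide mean plus 3 SD, that is over about 124.5% of the solvent control; inconclusive means no reading because the compound's own fluorescence disturbed strain identification; inactive means the rest.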
# key: entry, value: GFP response, % of DMSO

Field: example entries. Status: answers known.
compound | GFP response, % of DMSO
Nc1nc(Cl)nc2c1ncn2[C@H]1C[C@H](O)[C@@H](CO)O1 | 114% (inactive)
O=C(COc1ccc2ccc(=O)oc2c1)c1ccccc1 | 88.4% (inactive)
CC(C)NS(=O)(=O)c1ccc(OCC(=O)Nc2cccc(F)c2)cc1 | 92.4% (inactive)

The reported value for CCCCOn1c(C)c(C(C)=O)c2c3no[n+]([O-])c3ccc21 in terms of GFP response, % of DMSO is 99.4% (inactive)

The recorded GFP response, % of DMSO for CC(=O)CSc1ncnc2c1cnn2-c1ccccc1 is 87.3% (inactive)

Record Cc1ccccc1NC(=O)c1c(C)cc(=O)oc1C . Reported GFP response, % of DMSO: 99.2% (inactive)
